Kindly state growth for each of the entries shown.
# System: SF-268 CNS
# METHOD_SUMMARY: NCI-60 one-dose screen, 48 h (100 = growth as untreated, 0 = no growth, -100 = all killed)
# RUN_CONDITIONS: 10 µM unless noted
# Experimental: Cells are grown in 96 well plates and exposed to the test compound for 48 hours. Compounds are tested at a single concentration, which is 10^-5 M for most compounds. The reported endpoint is percent growth (GI% or GIPRCNT), where numbers from 0 - 100% represent growth inhibition, and numbers from -100% - 0 represent cell death. For example, a value of 40 represents 60% growth inhibition. A value of 0 means no net growth occurred over the course of the experiment. […]
About 83,000 compounds went through this panel and 20% of them were active in at least one assay; those are over-represented in the sample as a whole.
Response body: numeric value in %, unit text excluded.

Data request: // growth lookup, key: Cc1cc(N2CCCCCC2)nc(N2CCN(CC(=O)Nc3ccc4c(ccn4Cc4ccccc4)c3)CC2)n1
Data returned: 71.2

Data request: // growth lookup, key: Cc1ccc(Oc2c(/C=N/NC(=O)Cn3c(=O)sc4ccccc43)c(C)nn2-c2ccccc2)cc1
Data returned: 53.3

Data request: // growth lookup, key: CC1Cc2c(Cl)ncnc2N(C)c2ccc(O)cc21 (stereo not given)
Data returned: 29.1

Data request: // growth lookup, key: O=[N+]([O-])c1cccc(N=NNc2cccc([N+](=O)[O-])c2)c1
Data returned: 93.5

Data request: // growth lookup, key: O=C(COc1cccc(/C=C2\Oc3ccccc3C2=O)c1)c1ccc([N+](=O)[O-])cc1
Data returned: 96.2

Just for reference, PubChem BioAssay (NCI) is where these values come from.
